- test-name: Pharmacokinetic test in mice (IV and PO)
- Type: in vivo, BALB/c mice
- experimental-parameters: BALB/c, mouse, plasma; mice, PO 5 mg/kg
- Experimental: In this example, the pharmacokinetic behavior of the compounds after intravenous injection (IV) and intragastric (PO) administration in BALB/c mice was tested. On the day of administration, mice were weighed for actual body weight and the administration volume was calculated. […] Plasma concentrations were determined by a LC-MS/MS method. […] The relevant pharmacokinetic parameters were calculated by a linear logarithmic trapezoid method.
recorded-metric: AUC(0-inf) (µM·h)
One number for each entry, in µM·h.

{"compound-structure-string": "O=C(N[C@@H]1CCCC[C@H]1N1Cc2ccc(-c3nnc(C(F)F)o3)cc2S1(=O)=O)N1CCOCC1", "recorded-metric": "AUC(0-inf)", "experimental-result": 8.71}

For each of the items listed, what is its AUC(0-inf)?
1. CN(C)C(=O)N[C@@H]1CCCC[C@H]1N1Cc2ccc(-c3nnc(C(F)F)o3)cc2S1(=O)=O
2. O=S1(=O)c2cc(-c3nnc(C(F)F)o3)ccc2CN1[C@H](c1ccccn1)[C@H](O)c1ccc(F)cn1
3. CC(F)(F)C(=O)N[C@@H]1CCCC(F)(F)[C@H]1N1Cc2ccc(-c3nnc(C(F)F)o3)cc2S1(=O)=O
4. O=C(N[C@@H]1CCOC[C@H]1N1Cc2ccc(-c3nnc(C(F)F)o3)cc2S1(=O)=O)C(F)F

4.57
15.5
21.5
15.2
